Just for reference, ChEMBL document CHEMBL3616473 is where these values come from.

- assay-comment: Retention time of the compound by HPLC method
- Assay type: physicochemical
reported-metric: Retention_time (min)

compound	Retention_time (min)
CCc1ccc(C(=O)NN(C(=O)c2cc(C)cc(C)c2)C(C)(C)CO)cc1	14.5
CC(=O)c1ccc(C(=O)NN(C(=O)c2cc(C)cc(C)c2)C(C)(C)C)cc1	12
CCc1ccc(C(=O)NN(C(=O)c2cc(C)cc(CO)c2)C(C)(C)C)cc1	10.5

(a) Cc1cc(C)cc(C(=O)N(NC(=O)c2ccc(C(C)O)cc2)C(C)(C)C)c1 (racemic)
(b) C=Cc1ccc(C(=O)NN(C(=O)c2cc(C)cc(C)c2)C(C)(C)C)cc1
Query: Parameter check: reported Retention_time is higher for which label, a or b ? Lab log: write the label of the selected item as the result.
Result: b
(b: 15 min, a: 9.5 min)
